# Tested on: P388 leukemia
# ASSAY NAME: NCI tumour cell line growth inhibition, 48 h
Listed next: entries and their corresponding TGI.
Kindly provide the numeric value in µM only, without the unit symbol.

// worked examples, TGI included
COMPOUND	MEASURED ATTRIBUTE	NUMERIC READOUT
COc1cc2c(cc1OC)C(OC)N(C)c1c-2ccc2cc3c(cc12)OCO3 (centres undefined)	TGI	4.98
C=C1C(=O)C[C@@]23CCC[C@@]12CC(OCOC)C3 (some centres undefined)	TGI	1.92

[in] Form field - read-out: TGI; system: P388 leukemia; submitted item: CCN(CC)CCCNc1ncc(C)c2[nH]c3ccncc3c12
[out] 15.3

[in] What reported TGI corresponds to COC1C(O)C(C)OC(OC2C(Oc3cccc4c(O)c5c(=O)oc6ccc(C)c7c(=O)oc(c34)c5c67)OC(C)C(O)C2O)C1O (centres undefined) on P388 leukemia?
[out] 3.48

====

# Test system: MALME-3M melanoma
# ASSAY NAME: NCI tumour cell line growth inhibition, 48 h; in the data active = GI50 below about 0.43 µM; inactive = the rest
Allowed answers: active, inactive

[in] Hi, do you know how CS(=O)(=O)CCNCc1ccc(-c2ccc3ncnc(Nc4ccc(OCc5cccc(F)c5)c(C(F)(F)F)c4)c3c2)o1 came out in this test?
[out] inactive

[in] Just curious, what result did CCCCCCCCCc1cc[n+](CC(=O)c2ccc([N+](=O)[O-])cc2)cc1 get here?
[out] inactive

====

# System: KM12 colon
# ASSAY NAME: NCI tumour cell line growth inhibition, 48 h
MEASURED ATTRIBUTE: GI50

The examples below pair each entry with its known result.
COMPOUND	TARGET OR TEST SYSTEM	GI50
CCN(CC)CCCC(C)Nc1nc(C)cc(Nc2ccc3nc(C)cc(N)c3c2)n1 (stereo unspecified)	KM12 colon	19.3 µM
Clc1ccc(C2=Nn3c(nnc3-c3cc(Cl)cc(Cl)c3Cl)SC2)cc1	KM12 colon	9.15 µM
CCn1cc(-c2ccnc3[nH]ccc23)c(-c2cccc(NC(=O)Nc3ccc(OCc4ccccc4)cc3)c2)n1	KM12 colon	7.44 µM
S=C(Nc1ccc(Cl)cc1)Nc1ccc(-c2nc3ccccc3o2)cc1	KM12 colon	15.8 µM
O=C(/C=C/C=C/c1c(C2CC2)nc2ccccc2c1-c1ccc(F)cc1)c1cccs1	KM12 colon	1.79 µM

For the next question, use this compound.
[in] What does the data say about its GI50? Entry: CS(=O)(=O)CCNCc1ccc(-c2ccc3ncnc(Nc4ccc(OCc5cccc(F)c5)c(C(F)(F)F)c4)c3c2)o1
[out] 4.06 µM

====

Quick reference for GI50 among some compounds
# System: HOP-62 NSCLC
# ASSAY NAME: NCI tumour cell line growth inhibition, 48 h

COMPOUND	TARGET OR TEST SYSTEM	GI50
CC(C)CC(=O)Nc1n[nH]c2c1CN(C(=O)C1CCN(C)CC1)C2(C)C	HOP-62 NSCLC	1.2 µM
Clc1ccc(C2=Nn3c(nnc3-c3cc(Cl)cc(Cl)c3Cl)SC2)cc1	HOP-62 NSCLC	14.5 µM
COC1=CC(=O)C(OC)=C(OC)C1=O	HOP-62 NSCLC	16.2 µM
COc1ccc(-c2nc(C(=O)c3ccccc3)n(CC(=O)c3ccccc3)c2-c2ccc(OC)cc2)cc1	HOP-62 NSCLC	> 100 µM
CCn1cc(-c2ccnc3[nH]ccc23)c(-c2cccc(NC(=O)Nc3ccc(OCc4ccccc4)cc3)c2)n1	HOP-62 NSCLC	> 14.9 µM

[in] Consider the compound COC(=O)c1c(O)c([N+](=O)[O-])cc2c1c1c(n2Cc2ccccc2)C(=O)c2ccccc2C1=O and give its measured GI50.
[out] 21.3 µM

[in] Record request: GI50 value, item COc1cc2c3c(n(CCCNCCCNCCCNCCCN)c(=O)c2cc1OC)-c1cc2c(cc1C3=O)OCO2
[out] 3.01 µM

[in] Fill in: GI50 of Nc1nc2cc3ccc(C4CC(O)C(CO)O4)cc3cc2c(=O)[nH]1 (stereo not given) is ___
[out] > 100 µM

[in] Given the entry CN(C)c1ncc(-c2ccc(C(F)(F)F)cc2)c(NC2CCCCCC2)n1 , report its measured GI50.
[out] 24.5 µM

[in] If you can, please state the reported GI50 value of O=C(/C=C/C=C/c1c(C2CC2)nc2ccccc2c1-c1ccc(F)cc1)c1cccs1 .
[out] 2.74 µM

====

GI50 values for the compounds below.
# Tested on: UACC-257 melanoma
# ASSAY NAME: NCI tumour cell line growth inhibition, 48 h

In the examples that follow, each entry is paired with its recorded GI50.
COMPOUND	MEASURED ATTRIBUTE	RESULT
COc1cc(Nc2ncc(F)c(Nc3ccc4c(n3)NC(=O)C(C)(C)O4)n2)cc(OC)c1OC	GI50	> 10 µM
O=C(Nc1ccccc1O)c1ccc(CNc2ccnc(C(F)(F)F)c2)cc1	GI50	8.4 µM
CC(C)CC(=O)Nc1n[nH]c2c1CN(C(=O)C1CCN(C)CC1)C2(C)C	GI50	1.19 µM
COc1cc(/C=C/c2cc(/C=C/c3ccc(O)c(OC)c3)nc(N)n2)ccc1O	GI50	1.53 µM
CS(=O)(=O)CCNCc1ccc(-c2ccc3ncnc(Nc4ccc(OCc5cccc(F)c5)c(C(F)(F)F)c4)c3c2)o1	GI50	3.86 µM

[in] # get_value(readout= GI50, system= UACC-257 melanoma) for CCCCCCCCCCCCCCCC[N+](C)(CCO)Cc1cnc[nH]1 (stereo unspecified)
[out] 4.08 µM

[in] Which GI50 is reported with UACC-257 melanoma for this entry: O=[N+]([O-])c1ccccc1NC1c2ccccc2Oc2ccccc21 ?
[out] 7.2 µM

[in] Param readout= GI50; system= UACC-257 melanoma; entry= Cc1nc([C@H]2CC[C@H]3[C@@H]4CCC5=CC(=O)CC[C@]5(C)[C@H]4CC[C@]23C)cs1 ; returns value.
[out] 3.31 µM

====

# Test system: PC-3 prostate
# ASSAY NAME: NCI tumour cell line growth inhibition, 48 h
Recorded GI50 values for a group of compounds are listed next.

Solved entries (count: 3):
COMPOUND	GI50
O=C(/C=C/C=C/c1c(C2CC2)nc2ccccc2c1-c1ccc(F)cc1)c1cccs1	3.99 µM
COC(=O)c1c(O)c([N+](=O)[O-])cc2c1c1c(n2Cc2ccccc2)C(=O)c2ccccc2C1=O	15.4 µM
COc1cc2c3c(n(CCCNCCCNCCCNCCCN)c(=O)c2cc1OC)-c1cc2c(cc1C3=O)OCO2	3.31 µM

[in] What value of GI50 has been recorded for this entry: CN1CCN(c2ccc(Nc3nc(N)c(C(=O)c4ccc5c(c4)OCCO5)s3)cc2)CC1
[out] 1.77 µM

[in] What does the record list as GI50 for Nc1nc2cc3ccc(C4CC(O)C(CO)O4)cc3cc2c(=O)[nH]1 (stereo not given) ?
[out] > 100 µM

====

# Tested on: NCI-H226 lung
# ASSAY NAME: NCI tumour cell line growth inhibition, 48 h
MEASURED ATTRIBUTE: TGI (µM)
Write the value in µM as a bare number.

COMPOUND	UNIT TEXT	TGI
CC(C)C1CC2C(=O)N(c3ccccc3)C(=O)C2c2[nH]c3ccccc3c21 (centres undefined)	µM	36.8
O=C(Nc1ccccc1O)c1ccc(CNc2ccnc(C(F)(F)F)c2)cc1	µM	33.8
COc1cc(/C=C/c2cc(/C=C/c3ccc(O)c(OC)c3)nc(N)n2)ccc1O	µM	4.34
C[C@]12Cc3cnn(-c4ccc(F)cc4)c3NC1CC[C@@H]1C2CC[C@@]2(C)C1CC[C@@H]2O (some centres undefined)	µM	28
O=C(/C=C1\C[C@H]2C=Nc3ccccc3C(=O)N2C1)NCCCCNC(=O)/C=C1\C[C@H]2C=Nc3ccccc3C(=O)N2C1	µM	59.5

Now consider a different compound.
[in] Look up TGI for this compound: CC(=O)Oc1ccc2c(c1)oc1c3ccc(OC(C)=O)cc3n(C)c(=O)c21
[out] 53.1

====

# System: SF-268 CNS
# ASSAY NAME: NCI tumour cell line growth inhibition, 48 h; in the data active = GI50 below about 0.43 µM; inactive = the rest
Respond only with the outcome that fits, drawn from 1 = active, -1 = inactive

COMPOUND	LABEL
Clc1ccc(C2=Nn3c(nnc3-c3cc(Cl)cc(Cl)c3Cl)SC2)cc1	-1

[in] # lookup: test call for O=C(O)c1ccc(S(=O)(=O)Nc2ccc3oc4c(c3c2)C(=O)CCC4)cc1
[out] -1

[in] Dear colleague, could you share the recorded outcome for Cc1cc(O)c(C2=NN(c3ccc(S(N)(=O)=O)cc3)C(c3ccc(N(C)C)cc3)C2)c(C)c1Cl (stereo unspecified) when you have a moment?
[out] -1

[in] I'd appreciate the recorded outcome for COC(=O)c1c(O)c([N+](=O)[O-])cc2c1c1c(n2Cc2ccccc2)C(=O)c2ccccc2C1=O from this test.
[out] -1

[in] Just curious, what result did Nc1nc2cc3ccc(C4CC(O)C(CO)O4)cc3cc2c(=O)[nH]1 (stereo unspecified) get here?
[out] -1

[in] # fetch the recorded call for COc1ccc(C(=O)/C=C/c2cc3c(c(OC)c2)OCC(=O)N3)cc1 here
[out] -1

[in] Which outcome was assigned to COc1ccc(C[C@@H]2NC[C@@H](O)[C@@H]2OC(C)=O)cc1 in this test?
[out] -1

[in] Any idea what this test logged for CC(=O)[O-].[Mn+3].[O-]c1ccccc1C=NCCN=Cc1ccccc1[O-] ?
[out] -1

[in] Look up the recorded call for N#CC(C#N)N=Nc1ccc(Br)cc1 in this test.
[out] -1
